# Test: in vitro
# Condition Notes: monkey
Can you tell me log10(CC50 at 72 h) for the items I'm about to list?
// units: µM (pre-log); metric: CC50 at 72 h; scale: log10

Request the reported log10(CC50 at 72 h) associated with COc1cccc([C@H](COC(=O)/C=C/c2ccccc2)OC(=O)/C=C/c2ccccc2)c1OC [Compound 24]
1.92

Please answer likewise for COc1ccc([C@H](CNC(=O)/C=C/c2cc(OC)c(OC)c(OC)c2)OC(=O)/C=C/c2cc(OC)c(OC)c(OC)c2)cc1OC [Compound 42]
1.95

Please answer likewise for Cc1ccc([C@@H](CNC(=O)/C=C/c2ccccc2)OC(=O)/C=C/c2ccccc2)cc1 [Compound 29]
2.15

Please answer likewise for CCCC(=O)NC[C@@H](OC(=O)CCC)c1ccc(OC)c(OC)c1 [Compound 45]
1.71

Please answer likewise for COc1ccc([C@H](CNC(=O)/C=C/c2ccccc2)OC(=O)/C=C/c2ccccc2)cc1OC [Compound 2]
1.82

Please answer likewise for COc1cc(/C=C/C(=O)NC[C@@H](OC(=O)/C=C/c2cc(OC)c(OC)c(OC)c2)c2cc(OC)c(OC)c(OC)c2)cc(OC)c1OC [Compound 58]
1.63

Please answer likewise for COc1cc([C@@H](COC(=O)/C=C/c2ccccc2)OC(=O)/C=C/c2ccccc2)cc(OC)c1OC [Compound 7]
0.81

Please answer likewise for COc1ccc([C@@H](CNC(=O)/C=C/c2ccc(O[Si](C)(C)C(C)(C)C)cc2)OC(=O)/C=C/c2ccc(O[Si](C)(C)C(C)(C)C)cc2)cc1OC [Compound 48]
1.61

Please answer likewise for COc1cccc([C@@H](COC(=O)/C=C/c2ccccc2)OC(=O)/C=C/c2ccccc2)c1OC [Compound 23]
1.45

Please answer likewise for COc1cc([C@@H](CNC(=O)/C=C/c2ccccc2)OC(=O)/C=C/c2ccccc2)cc(OC)c1OC [Compound 5]
1.82

Please answer likewise for COc1ccc([C@H](CNC(=O)CCc2ccccc2)OC(=O)CCc2ccccc2)cc1OC [Compound 44]
1.86

Please answer likewise for Cc1ccc([C@H](CNC(=O)/C=C/c2ccccc2)OC(=O)/C=C/c2ccccc2)cc1 [Compound 30]
1.69

Please answer likewise for COc1ccc([C@@H](CNC(=O)/C=C/c2cc(OC)c(OC)c(OC)c2)OC(=O)/C=C/c2cc(OC)c(OC)c(OC)c2)cc1OC [Compound 41]
1.94

Please answer likewise for O=C(/C=C/c1ccccc1)NC[C@@H](OC(=O)/C=C/c1ccccc1)c1ccc2c(c1)OCO2 [Compound 33]
2.28

* * *

Parameter Measured: melting point

Request the reported melting point associated with COc1ccc([C@@H](CNC(=O)/C=C/c2cc(OC)c(OC)c(OC)c2)OC(=O)/C=C/c2cc(OC)c(OC)c(OC)c2)cc1OC
138 to 140 °C

Please answer likewise for Cc1ccc([C@@H](COC(=O)/C=C/c2ccccc2)OC(=O)/C=C/c2ccccc2)cc1
103 to 105 °C

Please answer likewise for COc1ccc([C@H](CNC(=O)/C=C/c2ccccc2)OC(=O)/C=C/c2ccccc2)cc1OC
123 to 125 °C

Please answer likewise for COc1cccc([C@@H](COC(=O)/C=C/c2ccccc2)OC(=O)/C=C/c2ccccc2)c1
67 to 69 °C

Please answer likewise for Cc1ccc([C@H](COC(=O)/C=C/c2ccccc2)OC(=O)/C=C/c2ccccc2)cc1
103 to 105 °C

Please answer likewise for COc1ccc([C@@H](CNC(=O)/C=C/c2ccccc2)OC(=O)/C=C/c2ccccc2)cc1
137 to 139 °C

* * *

Parameter Measured: melting point

Request the reported melting point associated with COc1ccc([C@@H](COC(=O)/C=C/c2ccccc2)NC(=O)/C=C/c2ccccc2)cc1OC
117 to 120 °C

Please answer likewise for O=C(/C=C/c1ccccc1)NC[C@H](OC(=O)/C=C/c1ccccc1)c1ccccc1
183 to 185 °C

Please answer likewise for COc1ccc([C@H](COC(=O)/C=C/c2ccccc2)OC(=O)/C=C/c2ccccc2)cc1
76 to 79 °C

Please answer likewise for COc1ccc([C@@H](COC(=O)/C=C/c2ccccc2)OC(=O)/C=C/c2ccccc2)cc1
93 to 96 °C

Please answer likewise for O=C(/C=C/c1ccccc1)OC[C@@H](OC(=O)/C=C/c1ccccc1)c1ccc2c(c1)OCO2
106 to 107 °C

Please answer likewise for O=C(/C=C/c1ccccc1)NC[C@@H](OC(=O)/C=C/c1ccccc1)c1ccc2c(c1)OCO2
186 to 190 °C

Please answer likewise for COc1cc(/C=C/C(=O)NC[C@@H](OC(=O)/C=C/c2cc(OC)c(OC)c(OC)c2)c2cc(OC)c(OC)c(OC)c2)cc(OC)c1OC
67 to 69 °C

* * *

# Tested on: Chloroquine-sensitive (3D7) strain of P. falciparum
# Test: Malaria SYBR Green I-based fluorescence (MSF) assay, 3D7 strain
# Assay type: cell-based
# Condition Notes: Plasmodium falciparum; P. falciparum 3D7, 72 hours incubation; read-out: IC50 against 3D7
pIC50: −log10 of the molar value.
Parameter Measured: pIC50

Request the reported pIC50 associated with Cc1ccc([C@H](COC(=O)/C=C/c2ccccc2)OC(=O)/C=C/c2ccccc2)cc1 [Compound 32]
< 5.30

Please answer likewise for COc1cccc([C@H](COC(=O)/C=C/c2ccccc2)OC(=O)/C=C/c2ccccc2)c1 [Compound 16]
< 5.30

Please answer likewise for COc1cccc([C@@H](COC(=O)/C=C/c2ccccc2)OC(=O)/C=C/c2ccccc2)c1OC [Compound 23]
< 5.30

Please answer likewise for COc1cc([C@H](COC(=O)/C=C/c2ccccc2)OC(=O)/C=C/c2ccccc2)cc(OC)c1OC [Compound 8]
< 5.30

Please answer likewise for CCCC(=O)NC[C@@H](OC(=O)/C=C/c1ccccc1)c1ccc(OC)c(OC)c1 [Compound 51]
< 5.00

Please answer likewise for Cc1ccc([C@@H](COC(=O)/C=C/c2ccccc2)OC(=O)/C=C/c2ccccc2)cc1 [Compound 31]
< 5.30

Please answer likewise for O=C(/C=C/c1ccccc1)NC[C@@H](OC(=O)/C=C/c1ccccc1)c1ccc2c(c1)OCO2 [Compound 33]
< 5.30

Please answer likewise for COc1ccc([C@H](COC(=O)/C=C/c2ccccc2)OC(=O)/C=C/c2ccccc2)cc1OC [Compound 4]
< 5.30

Please answer likewise for COc1ccc([C@@H](CNC(=O)CCc2ccccc2)OC(=O)CCc2ccccc2)cc1OC [Compound 43]
5.54

Please answer likewise for COc1cccc([C@H](CNC(=O)/C=C/c2ccccc2)OC(=O)/C=C/c2ccccc2)c1 [Compound 14]
< 5.30

Please answer likewise for COc1ccccc1[C@@H](CNC(=O)/C=C/c1ccccc1)OC(=O)/C=C/c1ccccc1 [Compound 9]
< 5.30

Please answer likewise for CCCC(=O)NC[C@@H](OC(=O)CCC)c1ccc(OC)c(OC)c1 [Compound 45]
< 5.00

Please answer likewise for COc1ccc([C@@H](CNC(=O)/C=C/c2ccccc2)OC(=O)/C=C/c2ccccc2)cc1 [Compound 17]
< 5.30

Please answer likewise for COc1ccc([C@@H](COC(=O)/C=C/c2cc(OC)c(OC)c(OC)c2)OC(=O)/C=C/c2cc(OC)c(OC)c(OC)c2)cc1OC [Compound 56]
5.63

Please answer likewise for COc1ccc([C@@H](CNC(=O)/C=C/c2cc(OC)c(OC)c(OC)c2)OC(=O)/C=C/c2cc(OC)c(OC)c(OC)c2)cc1OC [Compound 41]
5.50

Please answer likewise for COc1ccc([C@@H](COC(=O)/C=C/c2ccccc2)OC(=O)/C=C/c2ccccc2)cc1 [Compound 19]
< 5.30

* * *

Can you tell me melting point for the items I'm about to list?

Request the reported melting point associated with COc1ccc([C@H](CNC(=O)CCc2ccccc2)OC(=O)CCc2ccccc2)cc1OC
77 to 78 °C

Please answer likewise for COc1ccc([C@@H](CNC(=O)/C=C/c2ccccc2)OC(=O)CCc2ccccc2)cc1OC
101 to 103 °C

Please answer likewise for COc1ccc([C@@H](CNC(=O)/C=C/c2ccc(O[Si](C)(C)C(C)(C)C)cc2)OC(=O)/C=C/c2ccc(O[Si](C)(C)C(C)(C)C)cc2)cc1OC
63 to 65 °C

Please answer likewise for COc1ccc([C@H](CNC(=O)/C=C/c2ccccc2)OC(=O)/C=C/c2ccccc2)cc1
138 to 140 °C

Please answer likewise for COc1ccc([C@@H](CNC(=O)c2ccccc2)OC(=O)c2ccccc2)cc1OC
129 to 131 °C

Please answer likewise for COc1cc([C@H](CNC(=O)/C=C/c2ccccc2)OC(=O)/C=C/c2ccccc2)cc(OC)c1OC
126 to 127 °C

Please answer likewise for COc1ccccc1[C@H](CNC(=O)/C=C/c1ccccc1)OC(=O)/C=C/c1ccccc1
112 to 114 °C

* * *

Parameter Measured: melting point

Request the reported melting point associated with Cc1ccc([C@H](CNC(=O)/C=C/c2ccccc2)OC(=O)/C=C/c2ccccc2)cc1 [Compound 30]
139 to 141 °C

Please answer likewise for COc1ccc([C@H](CNC(=O)c2ccccc2)OC(=O)c2ccccc2)cc1OC [Compound 40]
128 to 130 °C

Please answer likewise for COc1ccc([C@@H](CNC(=O)CCc2ccccc2)OC(=O)CCc2ccccc2)cc1OC [Compound 43]
82 to 84 °C

Please answer likewise for O=C(/C=C/c1ccccc1)OC[C@H](OC(=O)/C=C/c1ccccc1)c1ccccc1 [Compound 28]
132 to 134 °C

Please answer likewise for O=C(/C=C/c1ccccc1)NC[C@H](OC(=O)/C=C/c1ccccc1)c1ccc2c(c1)OCO2 [Compound 34]
200 to 202 °C

Please answer likewise for COc1cccc([C@@H](CNC(=O)/C=C/c2ccccc2)OC(=O)/C=C/c2ccccc2)c1 [Compound 13]
139 to 141 °C

Please answer likewise for CCCC(=O)NC[C@@H](OC(=O)/C=C/c1ccccc1)c1ccc(OC)c(OC)c1 [Compound 51]
93 to 94 °C

Please answer likewise for COc1cccc([C@H](CNC(=O)/C=C/c2ccccc2)OC(=O)/C=C/c2ccccc2)c1OC [Compound 22]
105 to 107 °C
